Origin of measurements: PubChem BioAssay AID588

- Test Name: qHTS Assay for Spectroscopic Profiling in Resorufin Spectral Region
- Test Conditions: Compound fluorescence, resorufin region 547/598 nm, buffer
Hit rate of the full screen: of about 59,000 compounds, about 25 (0.04%) were called active. For the sample, actives were picked, then their nearest neighbours and some compounds at random.
Measured Parameter: max dye-equivalent concentration

The following molecules have reported results that may help.
Give the measured max dye-equivalent concentration of Cc1ccc(NC(=O)NCC(c2cccnc2)N2CCOCC2)cc1 (configuration not stated) . inactive

Quick one: Cc1noc(NS(=O)(=O)c2ccc(N3CC(O)=C(c4ccccc4)C3=N)cc2)c1C inactive

// same read-out, input: CN(C)c1ccc(-c2nc(NCCN3CCOCC3)c3ccccc3n2)cc1 inactive

Then O=C(Nc1ccc(Cl)cn1)Nc1cccs1 ? inactive

Also need COCCn1c(=O)c(-c2cccc(F)c2)nc2cncnc21 , thanks. inactive

Next record, please: COc1ccc(O)c(C(=O)c2cnc3onc(C(C)C)c3c2)c1 inactive

New cases:
// query max dye-equivalent concentration value for entry CCOC(=O)C1CCN(C(=O)CC2C(=O)N(Cc3ccccc3)C(C)c3nc4ccccc4n32)CC1 (configuration not stated) inactive

Now give it for COCCN(C(=O)CCC(=O)Nc1ccccn1)C(C(=O)NCCC(C)C)c1ccc(OC)cc1 (configuration not stated) too. inactive

Same question for N#CC1=C(N)Oc2n[nH]c(CSc3ccccc3)c2C12C(=O)Nc1ccccc12 (configuration not stated) please. inactive
